ASSAYED TARGET: b-Raf (V600E) (Homo sapiens, UniProt P15056, V600E)
Sequence (P15056 whole entry V600E): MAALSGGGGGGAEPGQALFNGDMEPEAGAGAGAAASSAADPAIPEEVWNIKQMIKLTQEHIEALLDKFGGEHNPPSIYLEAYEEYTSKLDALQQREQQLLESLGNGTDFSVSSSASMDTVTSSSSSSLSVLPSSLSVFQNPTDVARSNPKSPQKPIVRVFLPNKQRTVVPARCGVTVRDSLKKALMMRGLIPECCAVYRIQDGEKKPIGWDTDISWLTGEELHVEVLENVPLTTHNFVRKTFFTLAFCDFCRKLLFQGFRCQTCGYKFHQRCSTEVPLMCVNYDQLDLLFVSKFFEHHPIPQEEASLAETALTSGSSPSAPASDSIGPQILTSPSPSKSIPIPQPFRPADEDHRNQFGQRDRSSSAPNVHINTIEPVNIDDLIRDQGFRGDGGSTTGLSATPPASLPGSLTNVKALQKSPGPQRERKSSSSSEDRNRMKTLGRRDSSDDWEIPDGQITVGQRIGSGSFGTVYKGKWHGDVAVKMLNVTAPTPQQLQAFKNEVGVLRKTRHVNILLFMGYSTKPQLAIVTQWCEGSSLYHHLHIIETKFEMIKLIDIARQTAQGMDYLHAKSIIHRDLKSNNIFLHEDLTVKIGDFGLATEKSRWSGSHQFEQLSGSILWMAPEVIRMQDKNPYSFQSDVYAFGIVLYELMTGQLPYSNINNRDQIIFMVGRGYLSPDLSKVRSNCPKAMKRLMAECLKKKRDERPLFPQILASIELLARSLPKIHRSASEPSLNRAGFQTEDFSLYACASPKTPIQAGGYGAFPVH
ASSAY EXPLANATION: In vitro Raf activity determination (Alpha Screen, biotinylated kinase-dead MEK1 substrate), B-Raf
EXPERIMENTAL SETUP: b-Raf (V600E) approximately 4 pM; ATP 10 μM; pre-incubation 60 minutes; reaction 3 hours at room temperature
From the text: Full length MEK1 with an inactivating K97R ATP binding site mutation is utilized as a RAF substrate. The MEK1 cDNA was subcloned with an N-terminal (his)6 tag into a vector for E. Coli expression. The MEK1 substrate was purified from E. Coli lysate by nickel affinity chromatography followed by anion exchange. The final MEK1 preparation was biotinylated (Pierce EZ-Link Sulfo-NHS-LC-Biotin) and concentrated. […]
pIC50: −log10 of the molar value.
Readings of pIC50 for the listed compounds
MEASURED METRIC: pIC50

1. Cc1ncc(NC(=O)c2ccnc(C(C)(C)C#N)c2)cc1-c1cnc(N2CCC2)c(C#N)c1 8.05
2. COCCNc1ncc(-c2cc(NC(=O)c3cnnc(C(C)(C)C#N)c3)cnc2C)cc1C#N 7.49
3. Cc1ncc(NC(=O)c2cccc(C(F)F)c2)cc1-c1cnc(N2CCOCC2)c(C#N)c1 9.27
4. Cc1ncc(NC(=O)c2cc(C(F)(F)F)ccn2)cc1-c1cnc(NC2CCOCC2)c(C#N)c1 8.52
5. Cc1ncc(NC(=O)c2cc(C(F)(F)F)ccn2)cc1-c1cnc(N2CCOCC2)c(C#N)c1 9.00
6. CCCNc1ncc(-c2cc(NC(=O)c3cccc(C(F)(F)F)c3)ccc2C)cc1C#N 8.40
7. Cc1ncc(NC(=O)c2cnnc(C3CC3)c2)cc1-c1cnc(N2CC(C)(O)C2)c(C#N)c1 6.75
8. Cc1ncc(NC(=O)c2cccc(C(F)(F)F)c2)cc1-c1cnc(C2CCOCC2)c(C#N)c1 8.87
9. Cc1ccc(NC(=O)c2cc(C(C)(F)F)ccn2)cc1-c1cnc(N2CCOCC2)c(C#N)c1 8.82
10. COCCNc1ncc(-c2cc(NC(=O)c3ccnc(C(F)F)c3)cnc2C)cc1C#N 7.79
11. Cc1ncc(NC(=O)c2ccnc(C3CC3)c2)cc1-c1cnc(N2CCOCC2)c(C#N)c1 8.83
12. Cc1ncc(NC(=O)c2cc(C(C)(C)N)cc(C(F)(F)F)c2)cc1-c1cnc(N2CCOCC2)c(C#N)c1 8.11
13. CCn1cc(C(=O)Nc2ccc(C)c(-c3cnc(N4CC(C)(O)C4)c(C#N)c3)c2)cc(C(F)(F)F)c1=O 8.44
14. Cc1ncc(NC(=O)c2ccnc(C(C)(C)C#N)c2)cc1-c1cnc(-c2ccnnc2)c(C#N)c1 7.15
15. Cc1ccc(C(=O)Nc2cccc(C(F)(F)F)c2)cc1-c1cnc(N)c(C#N)c1 9.00
16. Cc1ccc(C(=O)Nc2cccc(C(F)(F)F)c2)cc1-c1cnc(N)c(C#N)c1C 8.01
17. Cc1ncc(NC(=O)c2ccnc(C(C)(C)C#N)c2)cc1-c1cnc(N2CCOC[C@@H]2C)c(C#N)c1 8.52
18. Cc1ncc(NC(=O)c2cnnc(C(C)(C)C#N)c2)cc1-c1cnc(NC2CCOCC2)c(C#N)c1 7.96
19. Cc1ccc(NC(=O)c2ccnc(C(F)F)c2)cc1-c1cnc(N2CCNCC2)c(C#N)c1 8.80
